# whole-cell filipin (z-score) per record follows
- System: A431
- assayNotes: whole-cell filipin (free cholesterol) integrated intensity, Z-score; higher = more cholesterol staining
- conditionDetails: compound concentration in added solution (µM; 5 µl added to 20 µl cells): 10; 18 h
Where a name gives a salt, the structure may show the parent alone.
API doc: respond with a numeric literal and nothing else, no unit.

compound	resultType	measuredValue
C[N+]1(C)CCOC(O)(c2ccc(-c3ccc(C4(O)C[N+](C)(C)CCO4)cc3)cc2)C1 (stereo not drawn) [Hemicholinium bromide]	whole-cell filipin (z-score)	-0.551
CC(C)(C)NCC(O)c1cc(Cl)c(N)c(Cl)c1 (stereo not drawn) [Clenbuterol hydrochloride]	whole-cell filipin (z-score)	-0.358
S=C(NC1CCCCC1)N1CCC(c2cnc[nH]2)CC1 [Thioperamide maleate]	whole-cell filipin (z-score)	-0.0418
NCCC(O)C(=O)NC1CC(N)C(OC2OC(CN)C(O)[C@H](O)[C@@H]2N)[C@H](OC2O[C@H](CO)[C@@H](O)[C@@H]2O)[C@@H]1O (stereo partly drawn) [Butirosin disulfate salt]	whole-cell filipin (z-score)	-0.257

The recorded whole-cell filipin (z-score) for entry C[C@@H]1CN([C@H]2CC[C@](C#N)(c3ccc(F)cc3)CC2)CC[C@]1(C(=O)O)c1ccccc1 [Levocabastine hydrochloride] equals -0.194

The recorded whole-cell filipin (z-score) for entry CC(=O)OCC1=C(C(=O)O)N2C(=O)[C@@H](N)[C@H]2SC1 [Cephalosporanic acid, 7-amino] equals -0.806

The recorded whole-cell filipin (z-score) for entry CCNCC(O)c1cccc(O)c1 (stereo not drawn) [Etilefrine hydrochloride] equals 0.485

The recorded whole-cell filipin (z-score) for entry COP(=O)(OC)C(O)C(Cl)(Cl)Cl (stereo not drawn) [Trichlorfon] equals -1.16

----------
# filipin (z-score) per record follows
- Tested on: A431
- assayNotes: filipin (cholesterol) integrated intensity within LBPA endosomes, Z-score; higher = more cholesterol in LBPA endosomes
- conditionDetails: compound concentration in added solution (µM; 5 µl added to 20 µl cells): 10; 18 h
Where a name gives a salt, the structure may show the parent alone.
API doc: respond with a numeric literal and nothing else, no unit.

Item CC(C)C[C@H]1C(=O)N2CCC[C@H]2[C@]2(O)O[C@](NC(=O)[C@@H]3C=C4c5cccc6[nH]c(Br)c(c56)C[C@H]4N(C)C3)(C(C)C)C(=O)N12 [Bromocryptine mesylate] was tested on A431; the reported filipin (z-score) is 0.487

Item CC(=O)NC1CCSC1=O (racemic) was tested on A431; the reported filipin (z-score) is -0.405

Item NCCc1c[nH]c2ccc(O)cc12 [Serotonin hydrochloride] was tested on A431; the reported filipin (z-score) is -0.627

Item C[N+](C)(C)CCCCCCCCCC[N+](C)(C)C [Decamethonium bromide] was tested on A431; the reported filipin (z-score) is -0.372

----------
- Test system: A431
- assayNotes: whole-cell filipin (free cholesterol) integrated intensity, Z-score; higher = more cholesterol staining
- conditionDetails: compound concentration in added solution (µM; 5 µl added to 20 µl cells): 10; 18 h
# label = Fulfilled if whole-cell filipin (z-score) >= -0.4 else Not fulfilled

Would you please look over these solved cases?
compound	discreteLabel
CCn1cc(C(=O)O)c(=O)c2cc3c(cc21)OCO3	Not fulfilled
CC(=O)[C@H]1CC[C@H]2[C@@H]3CC[C@H]4C[C@H](O)CC[C@]4(C)[C@H]3C(=O)C[C@]12C	Fulfilled
CC(=O)OCC(=O)[C@H]1CC[C@H]2[C@@H]3CC[C@H]4C[C@H](O)CC[C@]4(C)[C@H]3C(=O)C[C@]12C [Alfadolone acetate]	Fulfilled

Does C=C1C[C@@H]2[C@H](CC[C@]3(C)C(=O)CC[C@@H]23)[C@@]2(C)C=CC(=O)C=C12 have a reported whole-cell filipin (z-score) of at least -0.4? Fulfilled

Does CN(C)C(=O)Oc1cccc([N+](C)(C)C)c1 [Neostigmine bromide] have a reported whole-cell filipin (z-score) of at least -0.4? Not fulfilled
